Target: Cytochrome P450 2C19 (Homo sapiens)
Experiment: qHTS Assay for Inhibitors and Substrates of Cytochrome P450 2C19 (AID 899); further: nearly all actives have a fitted effect of over 60% in size
Conditions: recombinant CYP2C19, luciferin-H EGE luminescence; series mostly up to 57.1 µM
Inconclusive results are not listed. Active and inactive are the calls of the source. The call rests on the fitted dose curve; in most records, active means well fitted inhibition curve with a large enough effect; inconclusive means small, poorly fitted or top-dose-only effect; inactive means no such curve, though single readings can be large or run the other way.
Allowed answers: Y (active), N (inactive)

For CC(=O)Oc1ccccc1C(=O)O , what call appears in the results of this test? N

Which outcome did this test record for the compound O=c1[nH]cnc2[nH]ncc12 ? N

Would you mind telling me which call this test gave C1COC(NC(C2CC2)C2CC2)=N1 ? N

// param item: CC(C)(Sc1ccc(CCN(CCCCC2CCCCC2)C(=O)NC2CCCCC2)cc1)C(=O)O ; yields the recorded call N

Status in this test for O=C1CCc2cc(OCCCCc3nnnn3C3CCCCC3)ccc2N1 ? N

Returns: the outcome recorded for Nc1ccc(S(=O)(=O)Nc2ccnn2-c2ccccc2)cc1 in this assay. N

Record request — test call for Clc1cccc(Cl)c1NC1=NCCN1 Y
